Assignment: determine reported remaining activity at 1000 µM for the given molecules.
Target: recombinant human arginase 2 (Homo sapiens, UniProt P78540)
Assay: Arginase 2 inhibition, UPLC-MS measurement of ARG to ORN conversion in HEK293T cell lysate
Conditions: read-out: % of control activity at the corresponding [Inhibitor] ± SE, arginase 2; ARG 100 µM; inhibitor 1,000 µM; mean of two experiments
Please give a number only; it is taken to be in %.

input: Fill in reported remaining activity at 1000 µM for this entry: `[H]/N=C(/NC)NCCC[C@H](N)C(=O)O`
output: 111

input: State its remaining activity at 1000 µM for this molecule: `NCCCCN=C(N)N`
output: 78

input: Look up and state reported remaining activity at 1000 µM for `NCCCC[C@H](N)C(=O)O`
output: 56

input: Annotate the molecule `O=C(O)[C@@H]1CCCN1` with its measured remaining activity at 1000 µM.
output: 92

====

Target: recombinant human arginase 2 (Homo sapiens)
Sequence (P78540 23-354): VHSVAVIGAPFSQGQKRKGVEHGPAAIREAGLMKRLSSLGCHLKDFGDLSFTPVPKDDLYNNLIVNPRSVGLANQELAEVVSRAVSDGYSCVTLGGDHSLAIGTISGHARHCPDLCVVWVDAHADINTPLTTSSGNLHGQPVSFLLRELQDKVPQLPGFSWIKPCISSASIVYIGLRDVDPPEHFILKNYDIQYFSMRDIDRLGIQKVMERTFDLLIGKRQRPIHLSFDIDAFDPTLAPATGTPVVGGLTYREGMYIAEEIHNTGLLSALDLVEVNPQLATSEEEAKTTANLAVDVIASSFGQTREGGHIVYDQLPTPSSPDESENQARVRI
Assay: Arginase 2 inhibition, UPLC-MS measurement of ARG to ORN conversion in HEK293T cell lysate
Settings: read-out: % of control activity at the corresponding [Inhibitor] ± SE, arginase 2; ARG 2 mM; inhibitor 1 µM; mean of two experiments
attribute-measured: remaining activity at 1 µM (%)
Express your answer in %, writing the number without its unit.

input: Tell me its remaining activity at 1 µM given `NCCCCN=C(N)N` as the entry.
output: 104

input: State its remaining activity at 1 µM for this compound: `NCCCC[C@H](N)C(=O)O`
output: 88

input: Return the recorded remaining activity at 1 µM value; entry: `[H]/N=C(/NC)NCCC[C@H](N)C(=O)O`
output: 105

input: Read the entry `O=C(O)[C@@H]1CCCN1` and write its reported remaining activity at 1 µM.
output: 98

====

Biological target: recombinant human arginase 1 (Homo sapiens)
Sequence (P05089 1-322): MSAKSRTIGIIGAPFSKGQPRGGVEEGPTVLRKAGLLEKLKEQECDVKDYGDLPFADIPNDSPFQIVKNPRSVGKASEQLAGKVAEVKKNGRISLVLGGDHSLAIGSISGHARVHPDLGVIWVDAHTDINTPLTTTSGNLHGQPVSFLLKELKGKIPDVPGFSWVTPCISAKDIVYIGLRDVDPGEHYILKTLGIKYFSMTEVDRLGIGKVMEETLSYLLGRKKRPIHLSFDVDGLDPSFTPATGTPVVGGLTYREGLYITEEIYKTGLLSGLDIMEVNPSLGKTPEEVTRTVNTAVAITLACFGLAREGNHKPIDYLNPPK
Test: Arginase 1 inhibition, UPLC-MS measurement of ARG to ORN conversion in HEK293T cell lysate
Details: read-out: % of control activity at the corresponding [Inhibitor] ± SE, arginase 1; ARG 3 mM; inhibitor 1,000 µM; mean of two experiments
Could you please report measured remaining activity at 1000 µM for the items listed next?
Your answer should be a plain number; it is taken to be in %.

input: Respond only with remaining activity at 1000 µM recorded for [H]/N=C(/NC)NCCC[C@H](N)C(=O)O [L-NMMA, NG-Monomethyl-L-arginine]
output: 97

input: Give the reported value of remaining activity at 1000 µM for this record: NCCCC[C@H](N)C(=O)O [LYS, lysine]
output: 63

input: Consider the compound NCCCCN=C(N)N [AG, agmatine] and give its recorded remaining activity at 1000 µM.
output: 98

input: Give a short answer stating reported remaining activity at 1000 µM for O=C(O)[C@@H]1CCCN1 [PRO, proline] .
output: 100

====

Biological target: recombinant human arginase 2 (Homo sapiens, UniProt P78540)
Test: Arginase 2 inhibition, UPLC-MS measurement of ARG to ORN conversion in HEK293T cell lysate
Conditions: read-out: % of control activity at the corresponding [Inhibitor] ± SE, arginase 2; ARG 2 mM; inhibitor 1,000 µM; mean of two experiments
What remaining activity at 1000 µM was measured for each of the following?
Express it in %; write the number only.

input: Give the value of remaining activity at 1000 µM reported for the following: `NCCCC[C@H](N)C(=O)O`
output: 58

input: Fill in remaining activity at 1000 µM for record `[H]/N=C(/NC)NCCC[C@H](N)C(=O)O`
output: 118

input: Identify the reported remaining activity at 1000 µM for the following entry. `O=C(O)[C@@H]1CCCN1`
output: 98

input: Please supply the value of reported remaining activity at 1000 µM for the item `NCCCCN=C(N)N`
output: 96

====

Biological target: recombinant human arginase 2 (Homo sapiens, UniProt P78540)
Test: Arginase 2 inhibition, UPLC-MS measurement of ARG to ORN conversion in HEK293T cell lysate;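 also: HEK293T lysate carrying arginase 2 at 0.1 mg/mL in 0.05 M phosphate buffer pH 7.4, inhibitor preincubated with enzyme 5 min before ARG addition started the reaction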
Settings: read-out: % of control activity at the corresponding [Inhibitor] ± SE, arginase 2; ARG 100 µM; inhibitor 1 µM; mean of two experiments
attribute-measured: remaining activity at 1 µM (%)
Record the value in %, omitting the unit from your answer.

input: Entry O=C(O)[C@@H]1CCCN1 [PRO, proline] needs its remaining activity at 1 µM filled in; supply it.
output: 92

input: Supply recorded remaining activity at 1 µM for NCCCC[C@H](N)C(=O)O [LYS, lysine] here.
output: 92

input: Give me measured remaining activity at 1 µM, please, for this compound: [H]/N=C(/NC)NCCC[C@H](N)C(=O)O [L-NMMA, NG-Monomethyl-L-arginine]
output: 103

input: Tell us which remaining activity at 1 µM value is on record for NCCCCN=C(N)N [AG, agmatine]
output: 103

====

Target: recombinant human arginase 1 (Homo sapiens, UniProt P05089)
Sequence (P05089 1-322): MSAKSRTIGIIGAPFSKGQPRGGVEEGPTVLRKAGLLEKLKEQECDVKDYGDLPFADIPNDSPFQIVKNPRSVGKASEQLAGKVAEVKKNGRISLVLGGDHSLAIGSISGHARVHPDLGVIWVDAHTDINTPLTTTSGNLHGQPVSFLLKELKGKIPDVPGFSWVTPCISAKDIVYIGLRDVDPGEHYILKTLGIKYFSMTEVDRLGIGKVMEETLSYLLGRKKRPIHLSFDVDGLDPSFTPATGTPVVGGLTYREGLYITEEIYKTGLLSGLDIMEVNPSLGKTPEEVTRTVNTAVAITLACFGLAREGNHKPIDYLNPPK
Test: Arginase 1 inhibition, UPLC-MS measurement of ARG to ORN conversion in HEK293T cell lysate;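 also: arginase 1–expressing HEK293T lysate at 0.05 mg/mL in pH 7.4 phosphate buffer, inhibitor preincubated 5 min with enzyme, then reaction started by adding ARG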
Details: read-out: % of control activity at the corresponding [Inhibitor] ± SE, arginase 1; ARG 3 mM; inhibitor 100 µM; mean of two experiments
Hi there, I'd appreciate the recorded remaining activity at 100 µM for every entry that follows.
Write the answer as a number in %, unit excluded.

input: # return remaining activity at 100 µM of `NCCCC[C@H](N)C(=O)O` (system: recombinant human arginase 1 (Homo sapiens, UniProt P05089))
output: 82

input: Provide remaining activity at 100 µM, tested on recombinant human arginase 1 (Homo sapiens, UniProt P05089), for `NCCCCN=C(N)N` .
output: 100

input: Give remaining activity at 100 µM; test system recombinant human arginase 1 (Homo sapiens, UniProt P05089); compound `[H]/N=C(/NC)NCCC[C@H](N)C(=O)O`
output: 94

input: Retrieve remaining activity at 100 µM on recombinant human arginase 1 (Homo sapiens, UniProt P05089); query `O=C(O)[C@@H]1CCCN1`
output: 106

Sourced from paper PMC5829263
